Data credit: a melting point compilation (Tetko et al.; mined from patent text by program, amines drawn as free bases though some values may be those of a salt)

Reported melting point values for a set of compounds

Previously resolved entries follow.
>  <COMPOUND>
Clc1ccc2c(NCC=CCNc3ccnc4cc(Cl)ccc34)ccnc2c1

>  <MEASURE>
melting point

>  <MEAS_VALUE>
> 250 °C

$$$$
>  <COMPOUND>
CCC(Cl)C(=O)NC(C)=O (stereo unspecified)

>  <MEASURE>
melting point

>  <MEAS_VALUE>
51 to 53 °C

$$$$
>  <COMPOUND>
Brc1cnc(SCc2ccccc2)nc1SCc1ccccc1

>  <MEASURE>
melting point

>  <MEAS_VALUE>
66 to 67 °C

$$$$
>  <COMPOUND>
O=[N+]([O-])c1ccc(-c2nc3c(Cl)ncnc3o2)cc1

>  <MEASURE>
melting point

>  <MEAS_VALUE>
231 °C

$$$$
>  <COMPOUND>
CN1CCC(O)(C#N)CC1

>  <MEASURE>
melting point

>  <MEAS_VALUE>
130 to 133 °C

$$$$

// moving on: another record for melting point
Return reported melting point; argument: `CCOC(=O)CN1C(=O)C(=O)N(C)C1=O`
97 to 98.5 °C
